assay: Cytotoxicity against human Huh-7 cells assessed as reduction in cell viability measured after 48 hrs by celltiter-glo assay; type: cell-based; conditions: read-out: TC50
Listed next: entries and their corresponding CC50 at 48 h.
Recorded endpoint: CC50 at 48 h

[[record]]
smiles_str = "CCc1ccc(C(=O)Nc2ccn([C@@H]3O[C@H](CO)[C@@H](O)C3(F)F)c(=O)n2)cc1"
data_value = "490 µM"

[[record]]
smiles_str = "CC1(C)Cc2ccc(C(=O)Nc3ccn([C@@H]4O[C@H](CO)[C@@H](O)C4(F)F)c(=O)n3)cc2O1"
data_value = "1160 µM"

[[record]]
smiles_str = "O=C(Nc1ccn([C@@H]2O[C@H](CO)[C@@H](O)C2(F)F)c(=O)n1)c1ccc2c(c1)CCO2"
data_value = "954 µM"

[[record]]
smiles_str = "O=C(Nc1ccn([C@@H]2O[C@H](CO)[C@@H](O)C2(F)F)c(=O)n1)c1cc2c(cc1[N+](=O)[O-])OCO2"
data_value = "> 500 µM"


###

The entries below come with measured pIC50 values attached.
test system: Hepatitis C virus; experiment: Antiviral activity against HCV infected in human Huh-7 cells assessed as reduction in viral replication measured after 48 hrs by luciferase reporter gene assay; assay type: functional, organism-based, Hepacivirus hominis; settings: Huh-7, 48 h
pIC50: −log10 of the molar value.
Recorded endpoint: pIC50

[[record]]
smiles_str = "CC1(C)Cc2ccc(C(=O)Nc3ccn([C@@H]4O[C@H](CO)[C@@H](O)C4(F)F)c(=O)n3)cc2O1"
recorded_endpoint = "pIC50"
data_value = 6.75

[[record]]
smiles_str = "O=C(Nc1ccn([C@@H]2O[C@H](CO)[C@@H](O)C2(F)F)c(=O)n1)c1ccc2ccccc2c1"
recorded_endpoint = "pIC50"
data_value = 6.90

[[record]]
smiles_str = "O=C(Nc1ccn([C@@H]2O[C@H](CO)[C@@H](O)C2(F)F)c(=O)n1)c1ccc2c(c1)CCO2"
recorded_endpoint = "pIC50"
data_value = 6.84

[[record]]
smiles_str = "O=C(Nc1ccn([C@@H]2O[C@H](CO)[C@@H](O)C2(F)F)c(=O)n1)c1ccc(Cl)cc1Cl"
recorded_endpoint = "pIC50"
data_value = 7.11

[[record]]
smiles_str = "O=C(Nc1ccn([C@@H]2O[C@H](CO)[C@@H](O)C2(F)F)c(=O)n1)c1ccc2c(c1)OCCCO2"
recorded_endpoint = "pIC50"
data_value = 7.04

[[record]]
smiles_str = "Nc1ccn([C@@H]2O[C@H](CO)[C@@H](O)C2(F)F)c(=O)n1"
recorded_endpoint = "pIC50"
data_value = 7.24

[[record]]
smiles_str = "O=C(Nc1ccn([C@@H]2O[C@H](CO)[C@@H](O)C2(F)F)c(=O)n1)c1ccc2c(c1)CCC2"
recorded_endpoint = "pIC50"
data_value = 7.23

[[record]]
smiles_str = "O=C(Nc1ccn([C@@H]2O[C@H](CO)[C@@H](O)C2(F)F)c(=O)n1)C1Cc2ccccc2C1"
recorded_endpoint = "pIC50"
data_value = 8.00

[[record]]
smiles_str = "O=C(Nc1ccn([C@@H]2O[C@H](CO)[C@@H](O)C2(F)F)c(=O)n1)c1ccc2c(c1)OCCO2"
recorded_endpoint = "pIC50"
data_value = 6.90

[[record]]
smiles_str = "COc1cc(C(=O)Nc2ccn([C@@H]3O[C@H](CO)[C@@H](O)C3(F)F)c(=O)n2)cc(OC)c1OC"
recorded_endpoint = "pIC50"
data_value = 7.31

[[record]]
smiles_str = "COc1cc(OC)cc(C(=O)Nc2ccn([C@@H]3O[C@H](CO)[C@@H](O)C3(F)F)c(=O)n2)c1"
recorded_endpoint = "pIC50"
data_value = 7.13

[[record]]
smiles_str = "COc1ccc2cc(C(=O)Nc3ccn([C@@H]4O[C@H](CO)[C@@H](O)C4(F)F)c(=O)n3)ccc2c1"
recorded_endpoint = "pIC50"
data_value = 7.03

[[record]]
smiles_str = "O=C(Nc1ccn([C@@H]2O[C@H](CO)[C@@H](O)C2(F)F)c(=O)n1)c1ccc2cc(Br)ccc2c1"
recorded_endpoint = "pIC50"
data_value = 6.73

[[record]]
smiles_str = "O=C(Nc1ccn([C@@H]2O[C@H](CO)[C@@H](O)C2(F)F)c(=O)n1)c1ccc2c(c1)C(=O)c1ccccc1C2=O"
recorded_endpoint = "pIC50"
data_value = 7.89

[[record]]
smiles_str = "O=C(Nc1ccn([C@@H]2O[C@H](CO)[C@@H](O)C2(F)F)c(=O)n1)c1c(Br)ccc2c1OCO2"
recorded_endpoint = "pIC50"
data_value = 6.47


Reference for the values: ChEMBL document CHEMBL4732148
